tested on: third stage larvae of Haemonchus contortus; assay: Haemonchus contortus, Larvae Stage 3 (HcL3) In Vitro Assay; type: cell-based; settings: Haemonchus contortus, 96 h, read-out: HcL3 MED, Minimum Effective Dose, H. contortus third stage larvae, approximately 96 hours
minimal effective concentration values for the molecules below.
Give the value in µM but do not write µM after it.

Some entries whose results are on file:
>  <molecule>
CC(C)C[C@H]1C(=O)O[C@H](Cc2ccc(Cc3cnccc3C#N)cc2)C(=O)N(C)[C@@H](CC(C)C)C(=O)O[C@H](C)C(=O)N(C)[C@@H](CC(C)C)C(=O)O[C@H](Cc2ccc(Cc3cnccc3C#N)cc2)C(=O)N(C)[C@@H](CC(C)C)C(=O)O[C@H](C)C(=O)N1C [Example 3-307]

>  <readout_kind>
minimal effective concentration

>  <measured_value>
1

$$$$
>  <molecule>
CC(C)C[C@H]1C(=O)O[C@H](Cc2ccc(Cc3sccc3Cl)cc2)C(=O)N(C)[C@@H](CC(C)C)C(=O)O[C@H](C)C(=O)N(C)[C@@H](CC(C)C)C(=O)O[C@H](Cc2ccc(Cc3sccc3Cl)cc2)C(=O)N(C)[C@@H](CC(C)C)C(=O)O[C@H](C)C(=O)N1C [Example 3-87]

>  <readout_kind>
minimal effective concentration

>  <measured_value>
0.3

$$$$
>  <molecule>
CC(C)C[C@H]1C(=O)O[C@H](Cc2ccc(Cc3ncco3)cc2)C(=O)N(C)[C@@H](CC(C)C)C(=O)O[C@H](C)C(=O)N(C)[C@@H](CC(C)C)C(=O)O[C@H](Cc2ccccc2)C(=O)N(C)[C@@H](CC(C)C)C(=O)O[C@H](C)C(=O)N1C [Example 4-30]

>  <readout_kind>
minimal effective concentration

>  <measured_value>
1

$$$$
>  <molecule>
COc1ccc(Cc2ccc(C[C@H]3OC(=O)[C@H](CC(C)C)N(C)C(=O)[C@@H](C)OC(=O)[C@H](CC(C)C)N(C)C(=O)[C@@H](Cc4ccc(Cc5ccc(OC)nc5C)cc4)OC(=O)[C@H](CC(C)C)N(C)C(=O)[C@@H](C)OC(=O)[C@H](CC(C)C)N(C)C3=O)cc2)c(C)n1 [Example 3-121]

>  <readout_kind>
minimal effective concentration

>  <measured_value>
1.8

$$$$
>  <molecule>
CC(C)C[C@H]1C(=O)O[C@H](Cc2ccc([C@@H](C)c3nccs3)cc2)C(=O)N(C)[C@@H](CC(C)C)C(=O)O[C@H](C)C(=O)N(C)[C@@H](CC(C)C)C(=O)O[C@H](Cc2ccc([C@@H](C)c3nccs3)cc2)C(=O)N(C)[C@@H](CC(C)C)C(=O)O[C@H](C)C(=O)N1C [Example 3-291]

>  <readout_kind>
minimal effective concentration

>  <measured_value>
0.3

$$$$

Lookup: API: value(readout= minimal effective concentration, system= third stage larvae of Haemonchus contortus, query= COc1ccncc1Cc1ccc(C[C@H]2OC(=O)[C@H](CC(C)C)N(C)C(=O)[C@@H](C)OC(=O)[C@H](CC(C)C)N(C)C(=O)[C@@H](Cc3ccc(Cc4cnccc4OC)cc3)OC(=O)[C@H](CC(C)C)N(C)C(=O)[C@@H](C)OC(=O)[C@H](CC(C)C)N(C)C2=O)cc1 [Example 3-282] )
Found: 30

###

We begin with a simple list: items and their reported DiMf/DiL4.
system: D. immitis L4 larvae; test: Dirofilaria immitis, L4 Stage (DiL4) In Vitro Assay; assay type: cell-based; settings: larval stage selectivity, ratio of DiMf MED to DiL4 MED
# answer = number (no unit)

Lookup: What value of measured DiMf/DiL4 is listed for "COc1ncc(Cc2ccc(C[C@H]3OC(=O)[C@H](CC(C)C)N(C)C(=O)[C@@H](C)OC(=O)[C@H](CC(C)C)N(C)C(=O)[C@@H](Cc4ccc(Cc5cnc(OC)c(F)c5)cc4)OC(=O)[C@H](CC(C)C)N(C)C(=O)[C@@H](C)OC(=O)[C@H](CC(C)C)N(C)C3=O)cc2)cc1F" ?
Found: 100

Lookup: Value lookup for DiMf/DiL4; key = "Cc1cnccc1Cc1ccc(C[C@H]2OC(=O)[C@H](CC(C)C)N(C)C(=O)[C@@H](C)OC(=O)[C@H](CC(C)C)N(C)C(=O)[C@@H](Cc3ccc(Cc4ccncc4F)cc3)OC(=O)[C@H](CC(C)C)N(C)C(=O)[C@@H](C)OC(=O)[C@H](CC(C)C)N(C)C2=O)cc1"
Found: 5.5

Lookup: Requested read-out: DiMf/DiL4. Entry: "Cc1ccsc1Cc1ccc(C[C@H]2OC(=O)[C@H](CC(C)C)N(C)C(=O)[C@@H](C)OC(=O)[C@H](CC(C)C)N(C)C(=O)[C@@H](Cc3ccccc3)OC(=O)[C@H](CC(C)C)N(C)C(=O)[C@@H](C)OC(=O)[C@H](CC(C)C)N(C)C2=O)cc1"
Found: 33.3

###

Reported minimal effective concentration values for a set of molecules
test system: third stage larvae of Haemonchus contortus; experiment: Haemonchus contortus, Larvae Stage 3 (HcL3) In Vitro Assay; format: cell-based; conditions: Haemonchus contortus, 96 h, read-out: HcL3 MED, Minimum Effective Dose, H. contortus third stage larvae, approximately 96 hours
The answer is to be given in µM; state only the numeric part.

>  <compound_structure_string>
CC(C)C[C@H]1C(=O)O[C@H](Cc2ccc(Cc3ccsc3)cc2)C(=O)N(C)[C@@H](CC(C)C)C(=O)O[C@H](C)C(=O)N(C)[C@@H](CC(C)C)C(=O)O[C@H](Cc2ccc(Cc3ccsc3)cc2)C(=O)N(C)[C@@H](CC(C)C)C(=O)O[C@H](C)C(=O)N1C

>  <readout_kind>
minimal effective concentration

>  <unit_spec>
µM

>  <measured_value>
0.5

$$$$

Next:
Lookup: minimal effective concentration for "CC(C)C[C@H]1C(=O)O[C@H](Cc2ccc(Cc3ccc(F)cc3)cc2)C(=O)N(C)[C@@H](CC(C)C)C(=O)O[C@H](C)C(=O)N(C)[C@@H](CC(C)C)C(=O)O[C@H](Cc2ccccc2)C(=O)N(C)[C@@H](CC(C)C)C(=O)O[C@H](C)C(=O)N1C" ?
Found: 3.3

###

test system: third stage larvae of Haemonchus contortus; test: Haemonchus contortus, Larvae Stage 3 (HcL3) In Vitro Assay; format: cell-based; settings: Haemonchus contortus, 96 h, read-out: HcL3 MED, Minimum Effective Dose, H. contortus third stage larvae, approximately 96 hours
readout_kind: minimal effective concentration (µM)
Could you give me the number in µM? Just the number is fine.

>  <compound>
COc1ncccc1Cc1ccc(C[C@H]2OC(=O)[C@H](CC(C)C)N(C)C(=O)[C@@H](C)OC(=O)[C@H](CC(C)C)N(C)C(=O)[C@@H](Cc3ccc(Cc4cccnc4OC)cc3)OC(=O)[C@H](CC(C)C)N(C)C(=O)[C@@H](C)OC(=O)[C@H](CC(C)C)N(C)C2=O)cc1

>  <unit_spec>
µM

>  <measured_value>
2.4

$$$$

Lookup: State its minimal effective concentration on third stage larvae of Haemonchus contortus: "CC(C)C[C@H]1C(=O)O[C@H](Cc2ccc(Cc3ccco3)cc2)C(=O)N(C)[C@@H](CC(C)C)C(=O)O[C@H](C)C(=O)N(C)[C@@H](CC(C)C)C(=O)O[C@H](Cc2ccc(Cc3ccco3)cc2)C(=O)N(C)[C@@H](CC(C)C)C(=O)O[C@H](C)C(=O)N1C"
Found: 1

Lookup: Please state recorded minimal effective concentration (tested on third stage larvae of Haemonchus contortus) of "Cc1cc(Cc2ccc(C[C@H]3OC(=O)[C@H](CC(C)C)N(C)C(=O)[C@@H](C)OC(=O)[C@H](CC(C)C)N(C)C(=O)[C@@H](Cc4ccc(Cc5cc(C)nn5C)cc4)OC(=O)[C@H](CC(C)C)N(C)C(=O)[C@@H](C)OC(=O)[C@H](CC(C)C)N(C)C3=O)cc2)n(C)n1"
Found: 3.3

Lookup: minimal effective concentration / third stage larvae of Haemonchus contortus / "Cc1ncncc1Cc1ccc(C[C@H]2OC(=O)[C@H](CC(C)C)N(C)C(=O)[C@@H](C)OC(=O)[C@H](CC(C)C)N(C)C(=O)[C@@H](Cc3ccc(Cc4cncnc4C)cc3)OC(=O)[C@H](CC(C)C)N(C)C(=O)[C@@H](C)OC(=O)[C@H](CC(C)C)N(C)C2=O)cc1"
Found: 1

Lookup: Tell me reported minimal effective concentration for COC(c1ccc(C[C@H]2OC(=O)[C@H](CC(C)C)N(C)C(=O)[C@@H](C)OC(=O)[C@H](CC(C)C)N(C)C(=O)[C@@H](Cc3ccc(C(OC)c4ccc(O)nc4)cc3)OC(=O)[C@H](CC(C)C)N(C)C(=O)[C@@H](C)OC(=O)[C@H](CC(C)C)N(C)C2=O)cc1)c1ccc(O)nc1 (some centres unmarked) , tested with third stage larvae of Haemonchus contortus.
Found: 3.3

Lookup: Request - read-out minimal effective concentration | tested on third stage larvae of Haemonchus contortus | compound "COc1nccnc1Cc1ccc(C[C@H]2OC(=O)[C@H](CC(C)C)N(C)C(=O)[C@@H](C)OC(=O)[C@H](CC(C)C)N(C)C(=O)[C@@H](Cc3ccc(Cc4nccnc4OC)cc3)OC(=O)[C@H](CC(C)C)N(C)C(=O)[C@@H](C)OC(=O)[C@H](CC(C)C)N(C)C2=O)cc1"
Found: 1
